# System: 49-day-old S. mansoni adult worms
# testDetails: In vitro experiments with adult worms of S. mansoni (mortality, motor activity)
# Assay type: cell-based, Schistosoma mansoni
# particulars: 10 µM, 24 h, male worms
measurementKind: Motor Activity Reduction (%) Significant M
Reply with just the number (in %).

Exam item: Name the recorded Motor Activity Reduction (%) Significant M for O=C(/C=C/c1ccc([N+](=O)[O-])cc1)N(C(=O)NC1CCCCC1)C1CCCCC1 [Compound 6B] .
Marked response: 0

Exam item: # iterate: COc1cc(/C=C/C(=O)N2CCCC2)cc(OC)c1OC [Compound 1G]
Marked response: 0

Exam item: Same again, this time with COc1cc(/C=C/C(=O)N(C(=O)NC2CCCCC2)C2CCCCC2)cc(OC)c1OC [Compound 1M]
Marked response: 0

Exam item: Try this compound next: COc1cc(/C=C/C(=O)N2CCC=CC2=O)cc(OC)c1OC [Piplartine]
Marked response: 100

Exam item: Input O=C(/C=C/c1ccc2c(c1)OCO2)N1CCCC1 [Compound 14B]
Marked response: 0

---

# System: 49-day-old S. mansoni adult worms
# testDetails: In vitro experiments with adult worms of S. mansoni (mortality, motor activity)
# Format: cell-based, Schistosoma mansoni
# particulars: 10 µM, 48 h, female worms
What Dead Worms (%) F was measured for each of the following?
Numeric answer only, unit % assumed.

Exam item: Which value of Dead Worms (%) F has been reported for COc1cc(/C=C/C(=O)N2CCC=CC2=O)cc(OC)c1OC [Piplartine] in the records?
Marked response: 100

Exam item: # iterate: O=C(/C=C/c1ccc2c(c1)OCO2)N1CCCC1 [Compound 14B]
Marked response: 0

Exam item: How about this compound: O=C(/C=C/c1ccc([N+](=O)[O-])cc1)N(C(=O)NC1CCCCC1)C1CCCCC1 [Compound 6B]
Marked response: 0

Exam item: Moving on to COc1cc(/C=C/C(=O)N(C(=O)NC2CCCCC2)C2CCCCC2)cc(OC)c1OC [Compound 1M]
Marked response: 0

Exam item: // query: COc1cc(/C=C/C(=O)N2CCCC2)cc(OC)c1OC [Compound 1G]
Marked response: 0

---

# Tested on: 49-day-old S. mansoni adult worms
# testDetails: In vitro experiments with adult worms of S. mansoni (mortality, motor activity)
# Assay type: cell-based, Schistosoma mansoni
# particulars: 10 µM, 72 h, female worms
# Experimental: The Belo Horizonte (BH) strain of S. mansoni was maintained in Biomphalaria glabrata snails and Mesocricetus auratus hamsters at the Adolfo Lutz Institute (São Paulo, Brazil) according to standard procedures. […] Cultures of adult worms were monitored by microscopy or magnifying glass. The effect of the drug was assessed with emphasis on changes in worm motor activity and death of worms as previously described.
Field: Motor Activity Reduction (%) Slight F. Provide a value for each of the molecules that follow.
Numbers only; they are read as %.

Exam item: Given the molecule O=C(/C=C/c1ccc2c(c1)OCO2)N1CCCC1 [Compound 14B] , what is its reported Motor Activity Reduction (%) Slight F?
Marked response: 0

Exam item: Subsequent entry: COc1cc(/C=C/C(=O)N(C(=O)NC2CCCCC2)C2CCCCC2)cc(OC)c1OC
Marked response: 0

Exam item: Now this one: COc1cc(/C=C/C(=O)N2CCC=CC2=O)cc(OC)c1OC
Marked response: 0

Exam item: Try O=C(/C=C/c1ccc([N+](=O)[O-])cc1)N(C(=O)NC1CCCCC1)C1CCCCC1 next.
Marked response: 0

Exam item: What about COc1cc(/C=C/C(=O)N2CCCC2)cc(OC)c1OC ?
Marked response: 0

src = paper PMC6032158
